system: M. incognita J2 larvae; test: Meloidogyne incognita in vitro larval mobility assay; format: in vivo; settings: Meloidogyne incognita, 96 h, 45 μM, 4 days, replicate 1; read-out: Replicate 1 % Immobile
Just a reminder that ties go to FALSE: only pest or weed control at 45 µM strictly below 90% counts as TRUE.

Exam item: Find out if reported pest or weed control at 45 µM for Cc1c(-c2ccc(Br)cc2)nc2sccn12 is less than 90%
Marked response: TRUE

Exam item: Find out if reported pest or weed control at 45 µM for c1ccc(-c2nc3sccn3n2)cc1 is less than 90%
Marked response: TRUE

Exam item: Find out if reported pest or weed control at 45 µM for Fc1ccccc1-c1cn2ccsc2n1 is less than 90%
Marked response: TRUE

Exam item: Find out if reported pest or weed control at 45 µM for CCc1ccc(-c2cn3ccsc3n2)cc1 is less than 90%
Marked response: TRUE

Exam item: Find out if reported pest or weed control at 45 µM for O=Cc1c(-c2ccc(Cl)cc2)nc2sccn12 is less than 90%
Marked response: FALSE

Exam item: Find out if reported pest or weed control at 45 µM for Brc1cccc(-c2cn3ccsc3n2)c1 is less than 90%
Marked response: FALSE

Exam item: Find out if reported pest or weed control at 45 µM for Clc1ccc(-c2cn3ccsc3n2)nc1 is less than 90%
Marked response: TRUE

Exam item: Find out if reported pest or weed control at 45 µM for N#Cc1ccc(-c2cn3ccsc3n2)cc1 is less than 90%
Marked response: TRUE

Exam item: Find out if reported pest or weed control at 45 µM for Cc1nn2cc(-c3ccc(Cl)cc3)nc2s1 is less than 90%
Marked response: TRUE

Exam item: Find out if reported pest or weed control at 45 µM for FC(F)(F)Oc1ccc(-c2cn3ccsc3n2)cc1 is less than 90%
Marked response: TRUE

Exam item: Find out if reported pest or weed control at 45 µM for Clc1ccc(-c2cn3c(n2)SCC3)cc1 is less than 90%
Marked response: FALSE

Exam item: Find out if reported pest or weed control at 45 µM for Cc1c(-c2cccc(Cl)c2)nc2sccn12 is less than 90%
Marked response: TRUE

Exam item: Find out if reported pest or weed control at 45 µM for Nc1c(-c2ccccc2)nc2sccn12 is less than 90%
Marked response: TRUE

Exam item: Find out if reported pest or weed control at 45 µM for Cc1c(-c2ccc(Cl)cc2)nc2sccn12 is less than 90%
Marked response: TRUE

Exam item: Find out if reported pest or weed control at 45 µM for Clc1cccc(-c2cn3ccsc3n2)c1 is less than 90%
Marked response: FALSE

Exam item: Find out if reported pest or weed control at 45 µM for Cc1ccc(-c2cn3ccsc3n2)cc1 is less than 90%
Marked response: FALSE

Exam item: Find out if reported pest or weed control at 45 µM for O=Cc1c(-c2ccc(F)cc2)nc2sccn12 is less than 90%
Marked response: FALSE

Exam item: Find out if reported pest or weed control at 45 µM for Cc1cn2cc(-c3ccccc3Cl)nc2s1 is less than 90%
Marked response: TRUE

Exam item: Find out if reported pest or weed control at 45 µM for CC(C)NC(=O)N1CC(=O)N(c2cc(Cl)cc(Cl)c2)C1=O [Iprodione, iprodione, reference compound] is less than 90%
Marked response: TRUE

Exam item: Find out if reported pest or weed control at 45 µM for CCc1nn2cc(-c3ccc(C)cc3C)nc2s1 is less than 90%
Marked response: TRUE

Exam item: Find out if reported pest or weed control at 45 µM for O=Cc1c(-c2ccccc2)nc2sccn12 is less than 90%
Marked response: FALSE

Exam item: Find out if reported pest or weed control at 45 µM for Ic1cccc(-c2cn3ccsc3n2)c1 is less than 90%
Marked response: TRUE

Exam item: Find out if reported pest or weed control at 45 µM for Brc1ccc(-c2cn3c(n2)SCC3)cc1 is less than 90%
Marked response: FALSE

Exam item: Find out if reported pest or weed control at 45 µM for Cc1ccc(-c2cn3ccsc3n2)cc1C is less than 90%
Marked response: TRUE
